Entry source: PubChem BioAssay AID1963958

Readings of viability, T/C for the listed compounds
Test system: MDA-MB-231 multicell spheroids, viability
Assay: Anticancer human tumor MDA-MB-231 cell line growth inhibition [PI3K];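 also: spheroids exposed to agents for seven days before reading; percent of vehicle control luminescence with DMSO treated spheroids as 100%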
Conditions: second compound 1 µM; first compound 1 µM; active compounds read low

| Compound | Test Target | viability, T/C / % |
| --- | --- | --- |
| Cn1nccc1Nc1nccc(-c2ccn(C(CO)c3ccc(Cl)c(F)c3)c(=O)c2)n1 (stereo unspecified) + CC(Nc1ncnc2nc[nH]c12)c1cc2cccc(Cl)c2c(=O)n1-c1ccccc1 | MDA-MB-231 multicell spheroids, viability | 36.4 |
| CC(Cn1ccc(-c2ccc(C#N)c(Cl)c2)n1)NC(=O)c1cc(C(C)O)[nH]n1 (stereo unspecified) + Cc1nc(NC(=O)N2CCCC2C(N)=O)sc1-c1ccnc(C(C)(C)C(F)(F)F)c1 | MDA-MB-231 multicell spheroids, viability | 72.3 |
| CCN1CCN(Cc2ccc(Nc3ncc(F)c(-c4cc(F)c5nc(C)n(C(C)C)c5c4)n3)nc2)CC1 + COc1c(OCCCN2CCOCC2)ccc2c3n(c(=NC(=O)c4cnc(N)nc4)nc12)CCN3 | MDA-MB-231 multicell spheroids, viability | 83.2 |
| CC1(C)CCC(CN2CCN(c3ccc(C(=O)NS(=O)(=O)c4ccc(NCC5CCOCC5)c([N+](=O)[O-])c4)c(Oc4cnc5[nH]ccc5c4)c3)CC2)=C(c2ccc(Cl)cc2)C1 + COc1c(OCCCN2CCOCC2)ccc2c3n(c(=NC(=O)c4cnc(N)nc4)nc12)CCN3 | MDA-MB-231 multicell spheroids, viability | 23.9 |
| CCCS(=O)(=O)Nc1ccc(F)c(C(=O)c2c[nH]c3ncc(-c4ccc(Cl)cc4)cc23)c1F + CC(Nc1ncnc2nc[nH]c12)c1cc2cccc(Cl)c2c(=O)n1-c1ccccc1 | MDA-MB-231 multicell spheroids, viability | 71.9 |
| Cn1nccc1Nc1nccc(-c2ccn(C(CO)c3ccc(Cl)c(F)c3)c(=O)c2)n1 (stereo unspecified) + Cc1nc(NC(=O)N2CCCC2C(N)=O)sc1-c1ccnc(C(C)(C)C(F)(F)F)c1 | MDA-MB-231 multicell spheroids, viability | 34.6 |

* * *

Test system: MDA-MB-231 multicell spheroids, viability
Assay: Anticancer human tumor MDA-MB-231 cell line growth inhibition [PI3K];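 also: spheroids exposed to agents for seven days before reading; percent of vehicle control luminescence with DMSO treated spheroids as 100%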
Conditions: second compound 3.16 µM; first compound 3.16 µM; active compounds read low
Readings of viability, T/C for the listed compounds
Parameter: viability, T/C (%)

| Compound | Reported Measurement |
| --- | --- |
| CC1(C)CCC(Nc2ncc(C(F)(F)F)c(-c3c[nH]c4c(P(C)(C)=O)c(C#N)ccc34)n2)CN1 (centres undefined) + Cc1nc(NC(=O)N2CCCC2C(N)=O)sc1-c1ccnc(C(C)(C)C(F)(F)F)c1 | 40.4 |
| C#Cc1c(F)ccc2cc(O)cc(-c3ncc4c(N5CC6CCC(C5)N6)nc(OCC56CCCN5CC(F)C6)nc4c3F)c12 (centres undefined) + CC(Nc1ncnc2nc[nH]c12)c1cc2cccc(Cl)c2c(=O)n1-c1ccccc1 | 46.7 |
| Cn1nccc1Nc1nccc(-c2ccn(C(CO)c3ccc(Cl)c(F)c3)c(=O)c2)n1 (centres undefined) + CC(Nc1ncnc2nc[nH]c12)c1cc2cccc(Cl)c2c(=O)n1-c1ccccc1 | 25.2 |
| CC1(C)CCC(Nc2ncc(C(F)(F)F)c(-c3c[nH]c4c(P(C)(C)=O)c(C#N)ccc34)n2)CN1 (centres undefined) + CC(Nc1ncnc2nc[nH]c12)c1cc2cccc(Cl)c2c(=O)n1-c1ccccc1 | 36 |
| C[C@@H](NC(=O)c1ncnc(N)c1Cl)c1ncc(C(=O)Nc2cc(C(F)(F)F)c(Cl)cn2)s1 + Cc1nc(NC(=O)N2CCCC2C(N)=O)sc1-c1ccnc(C(C)(C)C(F)(F)F)c1 | 35.7 |
| CC(Cn1ccc(-c2ccc(C#N)c(Cl)c2)n1)NC(=O)c1cc(C(C)O)[nH]n1 (centres undefined) + CC(Nc1ncnc2nc[nH]c12)c1cc2cccc(Cl)c2c(=O)n1-c1ccccc1 | 56.9 |
| CCCS(=O)(=O)Nc1ccc(F)c(C(=O)c2c[nH]c3ncc(-c4ccc(Cl)cc4)cc23)c1F + Cc1nc(NC(=O)N2CCCC2C(N)=O)sc1-c1ccnc(C(C)(C)C(F)(F)F)c1 | 38.8 |
| CCCS(=O)(=O)Nc1ccc(F)c(C(=O)c2c[nH]c3ncc(-c4ccc(Cl)cc4)cc23)c1F + CC(Nc1ncnc2nc[nH]c12)c1cc2cccc(Cl)c2c(=O)n1-c1ccccc1 | 44.6 |
| C#Cc1c(F)ccc2cc(O)cc(-c3ncc4c(N5CC6CCC(C5)N6)nc(OCC56CCCN5CC(F)C6)nc4c3F)c12 (centres undefined) + Cc1nc(NC(=O)N2CCCC2C(N)=O)sc1-c1ccnc(C(C)(C)C(F)(F)F)c1 | 42 |
| Cn1nccc1Nc1nccc(-c2ccn(C(CO)c3ccc(Cl)c(F)c3)c(=O)c2)n1 (centres undefined) + Cc1nc(NC(=O)N2CCCC2C(N)=O)sc1-c1ccnc(C(C)(C)C(F)(F)F)c1 | 24.2 |
| C=CC(=O)N1CCN(c2nc(=O)n(-c3c(C)ccnc3C(C)C)c3nc(-c4c(O)cccc4F)c(F)cc23)C(C)C1 (centres undefined) + CC(Nc1ncnc2nc[nH]c12)c1cc2cccc(Cl)c2c(=O)n1-c1ccccc1 | 88.2 |
| CNC(=O)c1ccc(N2C(=S)N(c3ccc(C#N)c(C(F)(F)F)c3)C(=O)C2(C)C)cc1F + CC(Nc1ncnc2nc[nH]c12)c1cc2cccc(Cl)c2c(=O)n1-c1ccccc1 | 62.3 |
| Cn1ncc(Cl)c1-c1cc(C(=O)NC(CN)Cc2cccc(F)c2)sc1Cl (centres undefined) + CC(Nc1ncnc2nc[nH]c12)c1cc2cccc(Cl)c2c(=O)n1-c1ccccc1 | 36.3 |
| C=CC(=O)N1CCN(c2nc(=O)n(-c3c(C)ccnc3C(C)C)c3nc(-c4c(O)cccc4F)c(F)cc23)C(C)C1 (centres undefined) + Cc1nc(NC(=O)N2CCCC2C(N)=O)sc1-c1ccnc(C(C)(C)C(F)(F)F)c1 | 60.1 |
| CC(C)NCC(C(=O)N1CCN(c2ncnc3c2C(C)CC3O)CC1)c1ccc(Cl)cc1 (centres undefined) + CC(Nc1ncnc2nc[nH]c12)c1cc2cccc(Cl)c2c(=O)n1-c1ccccc1 | 45.3 |
| C[C@@H](NC(=O)c1ncnc(N)c1Cl)c1ncc(C(=O)Nc2cc(C(F)(F)F)c(Cl)cn2)s1 + CC(Nc1ncnc2nc[nH]c12)c1cc2cccc(Cl)c2c(=O)n1-c1ccccc1 | 47.7 |
| CC1(C)CCC(CN2CCN(c3ccc(C(=O)NS(=O)(=O)c4ccc(NCC5CCOCC5)c([N+](=O)[O-])c4)c(Oc4cnc5[nH]ccc5c4)c3)CC2)=C(c2ccc(Cl)cc2)C1 + Cc1nc(NC(=O)N2CCCC2C(N)=O)sc1-c1ccnc(C(C)(C)C(F)(F)F)c1 | 66 |
| CC1(C)CCC(CN2CCN(c3ccc(C(=O)NS(=O)(=O)c4ccc(NCC5CCOCC5)c([N+](=O)[O-])c4)c(Oc4cnc5[nH]ccc5c4)c3)CC2)=C(c2ccc(Cl)cc2)C1 + CC(Nc1ncnc2nc[nH]c12)c1cc2cccc(Cl)c2c(=O)n1-c1ccccc1 | 72.2 |
| Cn1ncc(Cl)c1-c1cc(C(=O)NC(CN)Cc2cccc(F)c2)sc1Cl (centres undefined) + Cc1nc(NC(=O)N2CCCC2C(N)=O)sc1-c1ccnc(C(C)(C)C(F)(F)F)c1 | 42.7 |
